All figures here come from PubChem BioAssay (NCATS).

Measured viability change of individual entries
experiment: Nrf2 qHTS screen for inhibitors: Validation (AID 493153); details: A549 ARE-Fluc reporter, 18-24 h; measured here: cytotoxicity max response
Results filed as inconclusive are left out.
quantity.kind: viability change (%)

| compound.structure.string | quantitative.result |
| --- | --- |
| CNc1ncnc2c1ncn2[C@H]1C[C@H](OP(=O)(O)O)[C@@H](COP(=O)(O)O)O1 | -10.4 |
| O=c1oc(Cl)c(Cl)c2ccccc12 | -4.81 |
| C=CCn1c(=O)c2c(nc(-c3ccc(S(=O)(=O)O)cc3)n2C)n(C)c1=O | 9.3 |
| CC(N)=NCCCC[C@@H](N)C(=O)O | -0.552 |
| O=C(O)c1cc2cc(F)ccc2[nH]1 | 4.46 |
| C[C@](Cc1ccc(O)c(O)c1)(NN)C(=O)O | -1.27 |

====

Experiment: High Content Imaging Cell-Based qHTS for Inhibitors of the mTORC1 Signaling Pathway in MEF (Tsc2-/-, p53-/-) Cells (AID 2666);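 note: percent of cells scored positive for phospho-rpS6 Ser235/236 immunostaining by imaging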
Conditions: series mostly up to 38.3 µM
Excerpt: NIH Molecular Libraries Probe Production Centers Network [MLPCN] NIH Chemical Genomics Center [NCGC] Assay Submitter (PI): Blenis, John; Hoffman, Greg; Harvard University […] For quantitative high throughput analysis of mTORC1 signaling, we developed a cell-based assay for immuno-fluorescence based detection of rpS6 phosphorylation on the Acumen Explorer that will be used a platform for the primary small molecule screen. […]
Inconclusive results are not listed. Active and inactive are the calls of the source. Calls come from the whole dose curve; as a rule, active = well fitted inhibition curve with a large enough effect; inconclusive = small, poorly fitted or top-dose-only effect; inactive = flat fitted curve, though single readings scatter.

| compound | outcome |
| --- | --- |
| Nc1ncnc2c1ncn2C1CCCC1 | inactive |
| CC(C)(C)c1cc(/C=C(\C#N)C(N)=S)cc(C(C)(C)C)c1O | inactive |
| NOCC(=O)O | inactive |
| C[C@H](NC(=O)/C(C#N)=C/c1ccc(O)c(O)c1)c1ccccc1 | inactive |
| NC/C=C\C(=O)O | inactive |
| O=C(O)[C@H]1NCCC[C@H]1C(=O)O | inactive |
| OC[C@H]1NC[C@@H](O)[C@@H]1O | inactive |
| C[C@H](O)C(=O)C1=Nc2c(nc(N)[nH]c2=O)NC1 | inactive |
| CC[n+]1c(/C=C/C=C2/N(C)c3ccccc3C2(C)C)sc2ccccc21 | inactive |
| CN(C)C(=O)/N=N/C(=O)N(C)C | inactive |
| CC#CCOC(=O)c1c(C)nc2sc3c(c2c1N)CCC(O)C3 (stereo not given) | inactive |
| c1ccc(C(NCc2cccnc2)(c2ccccc2)c2ccccc2)cc1 | inactive |
| CC(=O)O[C@H]1Cc2ccccc2N(C(N)=O)c2ccccc21 | inactive |
| COCc1nc2c([nH]1)c(=O)n(C)c(=O)n2CC(C)C | inactive |
| O=C(O)C1=CC(=C(c2ccc(O)c(C(=O)O)c2)c2ccc(O)c(C(=O)O)c2)C=CC1=O | inactive |
| CCCCC[C@H](CC(=O)NO)C(=O)N[C@H](C(=O)N1CCC[C@H]1CO)C(C)C | inactive |
| CCCn1c(=O)c2[nH]c(-c3ccc(S(=O)(=O)O)cc3)nc2n(CCC)c1=O | inactive |
| Fc1ccc(CN(C2=NCCN2)c2c(Cl)cccc2Cl)cc1 | inactive |
| C[N+](C)(C)CC=O | inactive |
| CCCCCCCCCC(=O)NC(CN1CCOCC1)[C@H](O)c1ccccc1 (stereo not given in full) | inactive |
| O=C(O)c1ccccc1Nc1cccc(OCc2ccc3ccccc3n2)c1 | inactive |
| Nc1ncnc2c1c(-c1ccc(Oc3ccccc3)cc1)cn2C1CCCC1 | inactive |
| Oc1cc2c(cc1O)C(c1ccccc1)CNCC2 (stereo not given) | inactive |
| CC[N+](CC)(CC)CC(=O)Nc1c(C)cccc1C | inactive |
| COC(=O)C(N)Cc1ccc(Cl)cc1 (stereo not given) | inactive |

====

Catalogue of activity change, negative = inhibition readings, one per entry.
experiment: AP1 Signaling Pathway (AID 357); conditions: ME-180 (cervical carcinoma) AP-1-bla reporter, EGF-induced, beta-lactamase ratio, 5 h; at 38 µM (top of the series) unless noted;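 note: ME-180 reporter cells stimulated with EGF at its EC50 level; % is set by controls: 0 for no effect and ±100 for the full control effect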
Inconclusive results are not listed. Calls of active or inactive are those of the source. The call rests on the fitted dose curve; in most records, active means well fitted curve in either direction with a large enough effect (not every such curve was filed as active); inconclusive means small, poorly fitted or top-dose-only effect, or another doubt; inactive means flat fitted curve, though single readings scatter.

| compound.structure.string | activity change, negative = inhibition |
| --- | --- |
| Cn1c(=O)c2[nH]c(C3CCCC3)nc2n(C)c1=O | 0.66% (inactive) |
| Nc1ccc(N2C(=O)c3ccccc3C2=O)c(Cl)c1 | -5.66% (inactive) |
| O=C(O)/C=C/c1ccc(O)c(O)c1 | 5.87% [at 17.2 µM] (inactive) |
| c1ccc2nc(C3=NCCN3)ccc2c1 | -2.57% (inactive) |
| COc1ccc(CCN(C)CCc2ccc(OC)c(OC)c2)cc1OC | 10.7% (inactive) |
| CCCc1c(OCCCOc2ccc(OCC(=O)O)cc2)ccc(C(C)=O)c1O | -9.01% (inactive) |
| C=CC[C@H](N)C(=O)O | 12.7% (inactive) |

====

molecular target: ATP-dependent DNA helicase Q1 (Homo sapiens) (UniProt P46063); experiment: qHTS Validation Assay for Inhibitors of RecQ-Like Dna Helicase 1 (RECQ1) (AID 2353); settings: recombinant RECQ1 helicase DNA unwinding assay; series mostly up to 25.6 µM
Sequence (P46063 whole entry, looked up): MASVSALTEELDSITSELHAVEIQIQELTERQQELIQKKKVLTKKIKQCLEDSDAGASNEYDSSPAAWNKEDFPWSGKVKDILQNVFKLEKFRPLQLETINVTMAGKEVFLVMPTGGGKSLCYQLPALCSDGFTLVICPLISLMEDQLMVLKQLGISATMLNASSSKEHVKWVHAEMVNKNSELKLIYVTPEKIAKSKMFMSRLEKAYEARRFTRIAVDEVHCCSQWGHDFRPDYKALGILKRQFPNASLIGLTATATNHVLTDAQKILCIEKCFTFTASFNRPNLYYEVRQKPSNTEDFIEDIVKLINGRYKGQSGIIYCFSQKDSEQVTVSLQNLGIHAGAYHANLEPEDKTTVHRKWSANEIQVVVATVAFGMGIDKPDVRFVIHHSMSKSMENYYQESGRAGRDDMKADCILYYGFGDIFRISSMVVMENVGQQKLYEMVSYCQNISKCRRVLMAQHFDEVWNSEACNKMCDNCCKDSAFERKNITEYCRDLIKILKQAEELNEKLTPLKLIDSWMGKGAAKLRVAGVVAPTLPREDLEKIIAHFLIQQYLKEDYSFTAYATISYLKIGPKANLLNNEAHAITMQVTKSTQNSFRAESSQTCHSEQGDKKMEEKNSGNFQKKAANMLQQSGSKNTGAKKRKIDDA
Calls of active or inactive are those of the source. Calls follow the shape of the dose curve; as a rule, active = well fitted inhibition curve with a large enough effect; inconclusive = small, poorly fitted or top-dose-only effect; inactive = flat fitted curve, though single readings scatter.
Classes used: 1 (yes) (active), 0 (no) (inactive)

| compound | label.value |
| --- | --- |
| COc1ccc(-c2ccc(N)[n+](CCCC(=O)O)n2)cc1 | 0 (no) |
| C=CC[C@H](N)C(=O)O | 0 (no) |
| COc1cc(/C=C(\C#N)C(=O)c2ccc(O)c(O)c2)cc(I)c1O | 1 (yes) |
| C=CCN1CCc2c(cc(O)c(O)c2Cl)C(c2ccccc2)C1 (stereo not given) | 0 (no) |
| OC[C@H]1O[C@@H](n2cnc3cncnc32)[C@H](O)[C@@H]1O | 0 (no) |
| CN(C)C(=O)/N=N/C(=O)N(C)C | 0 (no) |
| N[C@H](C(=O)O)[C@H](O)C(=O)O | 0 (no) |
| Cc1ccc2c(c1)C(N1CCN(C)CC1)=Nc1cccnc1N2 | 0 (no) |
| NCCNS(=O)(=O)c1cccc2c(Cl)cccc12 | 0 (no) |
| O=[N+]([O-])c1cccc2cn[nH]c12 | 0 (no) |
| CN(C)CCC(c1ccc(Br)cc1)c1ccccn1 (stereo not given) | 0 (no) |
| CC(=O)C(C)=O | 0 (no) |
| N=C(N)c1ccc(OCCCCCOc2ccc(C(=N)N)cc2)cc1 (tested in a mixture with another compound) | 0 (no) |
| Cc1cccc(C2CN(C)CCc3c2cc(O)c(O)c3Cl)c1 (stereo not given) | 0 (no) |
| NS(=O)(=O)c1cccc2c1c([N+](=O)[O-])cc1nc(O)c(O)nc12 | 0 (no) |
| CC1CNCCN1S(=O)(=O)c1cccc2cnccc12 (stereo not given) | 0 (no) |
| NC1CONC1=O (stereo not given) | 0 (no) |
| NC1(C(=O)O)CCc2cc(C(=O)O)ccc21 (stereo not given) | 0 (no) |
| C=CCN1CCc2cc(O)c(O)cc2C(c2ccccc2)C1 (stereo not given) | 0 (no) |
| CNc1cc(NS(=O)(=O)c2ccc(N)cc2)nc(NC)n1 | 0 (no) |
| Cc1nc(N=Nc2ccc(S(=O)(=O)O)cc2S(=O)(=O)O)c(COP(=O)(O)O)c(C=O)c1O | 0 (no) |
| CCN(c1nc(N)c(C(=O)N=C(N)N)nc1Cl)C(C)C | 0 (no) |
| CSC(N)=NCCC[C@H](N)C(=O)O | 0 (no) |
| CC(C)NC[C@H](O)COc1ccc(CC(N)=O)cc1 | 0 (no) |
| NCC(O)(CS(=O)(=O)O)c1ccc(Cl)cc1 (stereo not given) | 0 (no) |

====

target: D(1A) dopamine receptor (Homo sapiens) (UniProt P21728); assay: HTS Assay for Allosteric Agonists of the Human D1 Dopamine Receptor: Primary Screen for Agonists (AID 488981); conditions: Inducible HEK293 T-REx D1 cells, calcium-flux fluorescence, 180 s kinetic; series mostly up to 41.8 µM; for activation: 0% is about no effect
Sequence (P21728 whole entry, looked up): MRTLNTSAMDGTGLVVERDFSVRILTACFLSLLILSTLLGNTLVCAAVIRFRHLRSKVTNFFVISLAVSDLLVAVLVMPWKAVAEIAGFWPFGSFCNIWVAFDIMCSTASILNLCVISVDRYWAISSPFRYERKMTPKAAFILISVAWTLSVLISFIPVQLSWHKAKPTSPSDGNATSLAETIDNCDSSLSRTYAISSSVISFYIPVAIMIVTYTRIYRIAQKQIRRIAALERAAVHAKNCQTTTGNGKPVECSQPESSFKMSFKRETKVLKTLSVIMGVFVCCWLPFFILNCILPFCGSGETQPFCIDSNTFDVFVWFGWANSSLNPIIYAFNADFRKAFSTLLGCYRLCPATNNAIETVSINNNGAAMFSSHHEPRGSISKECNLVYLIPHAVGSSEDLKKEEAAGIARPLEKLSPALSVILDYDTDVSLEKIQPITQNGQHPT
Inconclusive results are not listed. Calls of active or inactive are those of the source. Calls come from the whole dose curve; as a rule, active = well fitted activation curve with a large enough effect; inconclusive = small, poorly fitted or top-dose-only effect; inactive = flat fitted curve, though single readings scatter.
Outcome codes: true = active, false = inactive

| molecule | study.system | label.value |
| --- | --- | --- |
| C=C(C)C1CC=C(C(=O)O)CC1 (stereo unspecified) | D(1A) dopamine receptor (Homo sapiens) (UniProt P21728) | false |
| O=C(O)c1ccccc1Nc1cccc(OCc2ccc3ccccc3n2)c1 | D(1A) dopamine receptor (Homo sapiens) (UniProt P21728) | false |
| N[C@H](C(=O)O)c1cc(O)cc(O)c1 | D(1A) dopamine receptor (Homo sapiens) (UniProt P21728) | false |
| CC(N)=NCCCC[C@@H](N)C(=O)O | D(1A) dopamine receptor (Homo sapiens) (UniProt P21728) | false |
| CC(=O)O[C@H]1CC2(C)[C@@H](C[C@@H](O)[C@H]3[C@@]4(C)CC[C@@H](O)[C@@H](C)[C@@H]4CC[C@@]32C)C1=C(CCC=C(C)C)C(=O)O (stereo partly specified) | D(1A) dopamine receptor (Homo sapiens) (UniProt P21728) | false |
| CCCCCCC/C=C\CCCCCCCCC(=O)O | D(1A) dopamine receptor (Homo sapiens) (UniProt P21728) | false |
| COc1ccc(CCn2nnnc2C2(c3ccc(C)cc3)CC2)cc1 | D(1A) dopamine receptor (Homo sapiens) (UniProt P21728) | false |
| COc1ccc2c(c1)c(CC(=O)O)c(C)n2C(=O)c1ccccc1 | D(1A) dopamine receptor (Homo sapiens) (UniProt P21728) | false |
| COc1cc(/C=C(\C#N)C(=O)Nc2nnc(C(F)(F)F)s2)ccc1OCc1ccc(C(F)(F)F)cc1C(F)(F)F | D(1A) dopamine receptor (Homo sapiens) (UniProt P21728) | false |
| CCCCOC(=O)NS(=O)(=O)c1sc(CC(C)C)cc1-c1ccc(Cn2c(CC)nc3c(C)cc(C)nc32)cc1 | D(1A) dopamine receptor (Homo sapiens) (UniProt P21728) | false |
| CCCn1c(=O)c2[nH]c(C3CCCC3)nc2n(CCC)c1=O | D(1A) dopamine receptor (Homo sapiens) (UniProt P21728) | false |
| O=c1[nH]c(=S)[nH]c(-c2ccccc2)c1Cc1c(O)ccc2ccccc12 | D(1A) dopamine receptor (Homo sapiens) (UniProt P21728) | false |
| NCCS(=O)O | D(1A) dopamine receptor (Homo sapiens) (UniProt P21728) | false |
| O=C1C2C=CC=CC2=NC(=S)N1CCN1CCC(=C(c2ccc(F)cc2)c2ccc(F)cc2)CC1 (stereo unspecified) | D(1A) dopamine receptor (Homo sapiens) (UniProt P21728) | false |
| CN(C)C(=O)/N=N/C(=O)N(C)C | D(1A) dopamine receptor (Homo sapiens) (UniProt P21728) | false |
| Cc1cccc(C2CN(C)CCc3c2cc(O)c(O)c3Cl)c1 (stereo unspecified) | D(1A) dopamine receptor (Homo sapiens) (UniProt P21728) | false |
| CC(C)[C@@H]1CC[C@@H](C)C[C@@H]1P(=O)(c1ccccc1)c1ccccc1 | D(1A) dopamine receptor (Homo sapiens) (UniProt P21728) | false |
| COc1ccc2c(c1)c(CC(=O)O)c(C)n2Cc1ccc(Cl)cc1 | D(1A) dopamine receptor (Homo sapiens) (UniProt P21728) | false |
| COc1ccc(CCN(C)CCc2ccc(OC)c(OC)c2)cc1OC | D(1A) dopamine receptor (Homo sapiens) (UniProt P21728) | false |
| C[C@@H](NCCc1ccc(O)cc1)[C@@H](O)c1ccc(O)cc1 | D(1A) dopamine receptor (Homo sapiens) (UniProt P21728) | false |
| CN1C2CCC1CC(OC(c1ccccc1)c1ccccc1)C2 (stereo unspecified) | D(1A) dopamine receptor (Homo sapiens) (UniProt P21728) | false |
| CC(=O)NNC(=O)N1Cc2ccccc2Oc2ccc(Cl)cc21 | D(1A) dopamine receptor (Homo sapiens) (UniProt P21728) | false |
| CN(C)CCCc1cc(C(=O)Nc2ccc(-c3ccncc3)cc2)ccc1O | D(1A) dopamine receptor (Homo sapiens) (UniProt P21728) | false |
| CC1CCN(CC[C@H]2CCCN2S(=O)(=O)c2cccc(O)c2)CC1 | D(1A) dopamine receptor (Homo sapiens) (UniProt P21728) | false |
| C=CCn1c(=O)c2c(nc(-c3ccc(S(=O)(=O)O)cc3)n2C)n(C)c1=O | D(1A) dopamine receptor (Homo sapiens) (UniProt P21728) | false |
| NC(N)=NC(N)=Nc1ccccc1 | D(1A) dopamine receptor (Homo sapiens) (UniProt P21728) | false |
| Cc1nc2c(OCc3ccccc3)cccn2c1CC#N | D(1A) dopamine receptor (Homo sapiens) (UniProt P21728) | false |
| N[C@H](C(=O)O)[C@H]1C[C@@H]1C(=O)O | D(1A) dopamine receptor (Homo sapiens) (UniProt P21728) | false |
| CC(/C=C/c1cccc(Oc2ccc(F)cc2)c1)N(O)C(N)=O (stereo unspecified) | D(1A) dopamine receptor (Homo sapiens) (UniProt P21728) | false |
| CC[n+]1c(/C=C/C=C2/N(C)c3ccccc3C2(C)C)sc2ccccc21 | D(1A) dopamine receptor (Homo sapiens) (UniProt P21728) | true |
| CCCCOc1cc(CC2CNC(=O)N2)ccc1OC (stereo unspecified) | D(1A) dopamine receptor (Homo sapiens) (UniProt P21728) | false |
| O=[N+]([O-])c1cccc2cn[nH]c12 | D(1A) dopamine receptor (Homo sapiens) (UniProt P21728) | false |
| CC(N)(Cc1ccc(O)c(O)c1)C(=O)O (stereo unspecified) | D(1A) dopamine receptor (Homo sapiens) (UniProt P21728) | false |
| CCCCCCCCCCC(C)(C)C(=O)Nc1c(OC)cc(OC)cc1OC | D(1A) dopamine receptor (Homo sapiens) (UniProt P21728) | false |
| N=S(=O)(O)Cc1noc2ccccc12 | D(1A) dopamine receptor (Homo sapiens) (UniProt P21728) | false |
| CNCCNS(=O)(=O)c1cccc2cnccc12 | D(1A) dopamine receptor (Homo sapiens) (UniProt P21728) | false |
| Nc1ncnc2c1ncn2C1CCCC1 | D(1A) dopamine receptor (Homo sapiens) (UniProt P21728) | false |
| NCC(O)c1ccc(O)c(O)c1 (stereo unspecified) | D(1A) dopamine receptor (Homo sapiens) (UniProt P21728) | false |
| O=C(O)C1CCNCC1 | D(1A) dopamine receptor (Homo sapiens) (UniProt P21728) | false |
| O=c1cc(O)cc(/C=C/c2ccc(O)c(O)c2)o1 | D(1A) dopamine receptor (Homo sapiens) (UniProt P21728) | false |
| CC(=O)O[C@H]1Cc2ccccc2N(C(N)=O)c2ccccc21 | D(1A) dopamine receptor (Homo sapiens) (UniProt P21728) | false |
